# Tested target: human FLT-3 (Arg571-Ser993) (Homo sapiens, UniProt P36888)
# Construct: human FLT-3 (Arg571-Ser993); GST (N)
# Sequence (P36888 571-993): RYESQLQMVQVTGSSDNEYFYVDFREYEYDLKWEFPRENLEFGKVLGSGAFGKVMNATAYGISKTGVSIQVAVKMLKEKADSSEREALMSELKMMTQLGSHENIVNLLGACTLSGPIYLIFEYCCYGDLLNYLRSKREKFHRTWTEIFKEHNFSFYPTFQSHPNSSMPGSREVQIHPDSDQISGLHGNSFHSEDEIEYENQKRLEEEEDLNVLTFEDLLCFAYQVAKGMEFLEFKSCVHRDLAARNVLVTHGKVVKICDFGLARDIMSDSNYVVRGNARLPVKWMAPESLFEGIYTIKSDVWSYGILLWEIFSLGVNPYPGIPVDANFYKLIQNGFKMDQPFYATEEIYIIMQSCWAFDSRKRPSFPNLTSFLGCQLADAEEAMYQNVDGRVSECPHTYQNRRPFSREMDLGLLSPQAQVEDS
# Measurement description: FLT-3 kinase assay (HTScan kit, DELFIA)
# Condition description: read-out: FLT-3 kinase inhibition (IC50)
# Protocol: Compounds 1-100 were treated for their efficacy in inhibiting activities of FLT-3, c-KIT, KDR/Flk-1, PDGFR-beta, EGFR, and PKC kinases by biochemical DELFIA (Dissociation Enhanced Lanthanide FIA) assays according to the procedure described below. The assays were conducted by, Division of Cell Engineering, Biomedical Engineering Research Laboratories, Industrial Technology Research Institute, Bldg. 53, 195, sec. 4, Chung Hsing Rd. Chutung, Hsinchu, Taiwan 310, R.O.C. […]
pIC50: −log10 of the molar value.
# cutoff 8 applies to pIC50; >= gives True, < gives False

Record excerpt, results attached:
[
  {
    "Compound": "Cc1cc(/C=C2/C(=O)Nc3ccc(F)cc32)c2ccccc(OCCCN(C)C)c1-2",
    "Cat": "False"
  },
  {
    "Compound": "O=C1Nc2ccc(F)cc2/C1=C/c1cc2cccccc-2c1",
    "Cat": "False"
  },
  {
    "Compound": "Cc1cc(/C=C2\\C(=O)Nc3ccc(F)cc32)c2cccccc1-2",
    "Cat": "False"
  }
]

Now examine the next entry.
Lookup: Has Cc1cc(C=C2C(=O)Nc3ccc(F)cc32)c2ccccc(OCCCN3CCOCC3)c1-2 (mixture of isomers) a recorded pIC50 greater than or equal to 8?
Found: True
